# targetOrSystem: APP-Avi-soluble human LOX-1(61-273) (human, UniProt P78380 61-273)
# protocolSummary: SET, IgG vs soluble human LOX-1
pKd: −log10 of the molar value.
testReadout: pKd

{"columns": ["binder", "recordedNumber"],
 "data": [
  ["MOR021448 (antibody, V domains shown, IgG (human IgG1f LALA); parent MOR20052 with the printed HCDR2 stretch exchanged) VH: QVQLVQSGAEVKKPGSSVKVSCKASGGTFSDYAISWVRQAPGQGLEWMGRVIRPYYGWTEYAQKFQGRVTITADESTSTAYMELSSLRSEDTAVYYCAREPSPLYGPYSDYVMDPWGQGTLVTVSS VL: DIALTQPASVSGSPGQSITISCTGTSSDVGYFNFVSWYQQHPGKAPKLMIYDVSNRPSGVSNRFSGSKSGNTASLTISGLQAEDEADYYCASYGWDSSWVFGGGTKLTVLG", 12.52],
  ["MOR021442 (antibody, V domains shown, IgG (human IgG1f LALA); parent MOR20159 with the printed LCDR3 stretch exchanged) VH: QVQLVQSGAEVKKPGSSVKVSCKASGGTFSDYAISWVRQAPGQGLEWMGGIVPIVGTANYAQKFQGRVTITADESTSTAYMELSSLRSEDTAVYYCARDSSTSYYYYFDYWGQGTLVTVSS VL: DIQMTQSPSSLSASVGDRVTITCRASQDINSWLAWYQQKPGKAPKLLIYQASNLQSGVPSRFSGSGSGTDFTLTISSLQPEDFATYYCQQMHRLPVTFGQGTKVEIKR", 11.40],
  ["MOR021444 (antibody, V domains shown, IgG (human IgG1f LALA); parent MOR20133 with the printed HCDR2 stretch exchanged) VH: QVQLVQSGAEVKKPGESLKISCKGSGYSFTNYWIAWVRQMPGKGLEWMGRIEPLSSTTEYSPSFQGQVTISADKSISTAYLQWSSLKASDTAMYYCARGKRGATHPTQYEGWEVYGFDPWGQGTLVTVSS VL: DIELTQPPSVSVSPGQTASITCSGDALGGKYASWYQQKPGQAPVLVIYDDNKRPSGIPERFSGSNSGNTATLTISGTQAEDEADYYCQSWAFYSGVFGGGTKLTVLG", 10.46]
]}

All figures here come from patent US20170260272A1.
